Taken from patent US20250066745A1.

assayComment: Luminescence activity assay of purified Gaussia luciferase mutants on coelenterazine derivative ZS2
Type: biochemical
Parameters: key: ratio of mutant luminescence intensity to wild-type Gaussia luciferase
details: Substrate ZS2 (Table 16)
valueType: Activity of mutant relative to wild-type Gaussia luciferase without the signal peptide

F26I V29F A30G A32E S33D A36N T37D L40T: Gaussia luciferase mutant (protein, SIGNAL (1)..(17), Gaussia luciferase mutant) MGVKVLFALICIAVAEAKPTENNEDINIFGVEDNFNDTDTDADRGKLPGKKLPLEVLKEMEANARKAGCTRGCLICLSHIKCTPKMKKFIPGRCHTYEGDKESAQGGIGEAIVDIPEIPGFKDLEPMEQFIAQVDLCVDCTTGCLKGLANVQCSDLLKKWLPQRCATFASKIQGQVDKIKGAGGD
0.000

Now for another entry.
Query: Bench note: what Activity of mutant relative to wild-type Gaussia luciferase without the signal peptide did K66N P84A E102K S103I E110G L124M V138E: Gaussia luciferase mutant (protein, SIGNAL (1)..(17), Gaussia luciferase mutant) MGVKVLFALICIAVAEAKPTENNEDFNIVAVASNFATTDLDADRGKLPGKKLPLEVLKEMEANARNAGCTRGCLICLSHIKCTAKMKKFIPGRCHTYEGDKKIAQGGIGGAIVDIPEIPGFKDMEPMEQFIAQVDLCEDCTTGCLKGLANVQCSDLLKKWLPQRCATFASKIQGQVDKIKGAGGD show?
Reply: 0.620
